test system: Escherichia coli TOP10; assay: shrunken log2 fold change of peptide-encoding DNA abundance (4.5 h post-induction vs induction); higher = less antimicrobial activity (less host growth inhibition); settings: time post-induction: 4.5 h; library: site-saturation at positions 5, 18, 19, 20;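 note: peptides expressed intracellularly from a pBAD plasmid library in pooled LB shake-flask culture, induced with 0.3% L-arabinose, DNA abundance read by NGS, three biological replicates, DESeq2 with apeglm shrinkage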
Please go through the items and note down their shrunken log2 fold change.
Give bare numbers.

A selection of reference data follows.
RRIRPRPPRLPRPRPRPFEEPRP    -0.00852
RRIRSRPPRLPRPRPRPACPPRP    0.413
RRIRFRPPRLPRPRPRPKFQPRP    -0.14
RRIRYRPPRLPRPRPRPTKRPRP    -0.028
RRIRHRPPRLPRPRPRPMAPPRP    0.0599

List reported shrunken log2 fold change for each of these sequences:
1. RRIRQRPPRLPRPRPRPKHSPRP
2. RRIRHRPPRLPRPRPRPWCRPRP
3. RRIRVRPPRLPRPRPRPAPFPRP
4. RRIRYRPPRLPRPRPRPGNQPRP
5. RRIRIRPPRLPRPRPRPHKQPRP
6. RRIRVRPPRLPRPRPRPECNPRP
7. RRIRLRPPRLPRPRPRPDFDPRP
8. RRIRWRPPRLPRPRPRPGGKPRP

*A*
-0.0171
-0.352
0.0259
-0.252
-0.0164
-0.195
-0.047
0.227

I need shrunken log2 fold change for every entry listed below, if you could help.
1. RRIRSRPPRLPRPRPRPFSIPRP
2. RRIRCRPPRLPRPRPRPGTYPRP

*A*
1: -0.379; 2: -0.628
